ASSAYED_TARGET: Estrogen receptor (Homo sapiens) (UniProt P03372)
Sequence (P03372 whole entry, looked up): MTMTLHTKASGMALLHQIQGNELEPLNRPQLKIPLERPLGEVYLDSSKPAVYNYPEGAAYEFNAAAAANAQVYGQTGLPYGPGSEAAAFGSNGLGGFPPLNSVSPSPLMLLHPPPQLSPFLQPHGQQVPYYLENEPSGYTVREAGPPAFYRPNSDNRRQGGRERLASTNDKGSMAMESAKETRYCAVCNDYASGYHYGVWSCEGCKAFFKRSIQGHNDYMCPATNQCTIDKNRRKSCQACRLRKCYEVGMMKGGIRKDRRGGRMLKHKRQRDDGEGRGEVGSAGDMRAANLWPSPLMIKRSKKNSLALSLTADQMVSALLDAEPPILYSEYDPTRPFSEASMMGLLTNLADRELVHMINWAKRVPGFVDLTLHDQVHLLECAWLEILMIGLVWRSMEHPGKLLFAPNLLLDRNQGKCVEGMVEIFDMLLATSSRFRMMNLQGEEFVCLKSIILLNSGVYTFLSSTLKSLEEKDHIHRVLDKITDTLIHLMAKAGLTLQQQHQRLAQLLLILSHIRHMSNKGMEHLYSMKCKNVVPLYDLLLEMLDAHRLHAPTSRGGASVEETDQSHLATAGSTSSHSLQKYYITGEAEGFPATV
ASSAY_DETAILS: ATG_hERa_XSP1: Attagene TRANS-FACTORIAL Multi-Species (XSP1) HepG2 Assay for human Estrogen Receptor (ESR1) (AID 2283780)
Records with an inconclusive call do not appear. Calls of active or inactive are those of the source. How the source made its calls: active means hit-call score of the fitted dose curve at least 0.9, where 1 is the maximum; inconclusive means response in the unintended direction; inactive means score below 0.9.
Give your call using only these classes: active, inactive

# COMPOUND, ASSAYED_TARGET, ASSIGNED_CLASS
rows = [
    ("CCOCN(C(=O)CCl)c1c(C)cccc1CC", "Estrogen receptor (Homo sapiens) (UniProt P03372)", "inactive"),
    ("CCCN(CCC)c1c([N+](=O)[O-])cc(C(F)(F)F)cc1[N+](=O)[O-]", "Estrogen receptor (Homo sapiens) (UniProt P03372)", "inactive"),
    ("COP(=S)(OC)Oc1ccc(SC)c(C)c1", "Estrogen receptor (Homo sapiens) (UniProt P03372)", "active"),
]

Problem: Query: recorded result category for CC1(C)C(C=C(Cl)Cl)C1C(=O)OC(C#N)c1ccc(F)c(Oc2ccccc2)c1 (centres undefined) in this test
Result: inactive

----------
ASSAY_DETAILS: Tanguay_ZF_120hpf_BRAI_legacy: (Legacy) Oregon State University Tanguay Lab 120 Hour Post-fertilization zebrafish Assay for Brain Malformation (AID 2283641)
Results filed as inconclusive are left out. The source made the active and inactive calls. The calls were made as follows: active = hit-call score of the fitted dose curve at least 0.9, where 1 is the maximum; inconclusive = response in the unintended direction; inactive = score below 0.9.
Give your call using only these classes: active, inactive

Take a look at these entries with their results.
# COMPOUND, ASSIGNED_CLASS
data = [
    ("CCc1ccc(C(=O)NN(C(=O)c2cc(C)cc(C)c2)C(C)(C)C)cc1", "inactive"),
    ("Clc1ccccc1-c1nnc(-c2ccccc2Cl)nn1", "inactive"),
    ("CCN(CC)C(=O)SCc1ccc(Cl)cc1", "inactive"),
    ("CN1CSC(=S)N(C)C1", "inactive"),
    ("Oc1cc(Cl)ccc1Oc1ccc(Cl)cc1Cl", "inactive"),
]

Problem: Query: recorded result category for `OCCOc1ccccc1` in this test
Result: inactive

Problem: Query: recorded result category for CC(C)(C)C(O)/C(=C\c1ccc(Cl)cc1Cl)n1cncn1 (stereo unspecified) in this test
Result: active

Problem: Query: recorded result category for `Oc1ccc(Cl)cc1Cc1ccccc1` in this test
Result: inactive

Problem: Query: recorded result category for `CC(C)OC(=O)Nc1cccc(Cl)c1` in this test
Result: active

Problem: Query: recorded result category for CC[C@H](C)[C@H]1O[C@]2(C=C[C@@H]1C)C[C@@H]1C[C@@H](C/C=C(\C)[C@@H](O[C@H]3C[C@H](OC)[C@@H](O[C@H]4C[C@H](OC)[C@@H](O)[C@H](C)O4)[C@H](C)O3)[C@@H](C)/C=C/C=C3\CO[C@@H]4[C@H](O)C(C)=C[C@@H](C(=O)O1)[C@]34O)O2 (tested in a mixture with another compound) in this test
Result: active

Problem: Query: recorded result category for CCC(C)(NC(=O)c1cc(Cl)c(C)c(Cl)c1)C(=O)CCl (stereo unspecified) in this test
Result: inactive

Problem: Query: recorded result category for `COP(=S)(OC)Oc1ccc([N+](=O)[O-])cc1` in this test
Result: inactive

Problem: Query: recorded result category for `N#Cc1c(Cl)c(Cl)c(Cl)c(C#N)c1Cl` in this test
Result: inactive

Problem: Query: recorded result category for `CCOCN(C(=O)CCl)c1c(C)cccc1CC` in this test
Result: inactive

Problem: Query: recorded result category for `O=C1c2ccccc2C(=O)N1SC(Cl)(Cl)Cl` in this test
Result: inactive

----------
ASSAY_DETAILS: CEETOX_H295R_PROG: CeeTox H295R High-throughput Steroidogenesis Assay for Progesterone (PROG) (AID 2283442)
RUN_CONDITIONS: actives raise or lower the signal
The source made the active and inactive calls. The calls were made as follows: active = hit-call score of the fitted dose curve at least 0.9, where 1 is the maximum; inactive = score below 0.9.
Give your call using only these classes: active, inactive

Take a look at these entries with their results.
# COMPOUND, ASSIGNED_CLASS
rows = [
    ("C#CCN1C(=O)COc2cc(F)c(N3C(=O)C4=C(CCCC4)C3=O)cc21", "inactive"),
    ("CCC(C)(C)C(=O)OC1=C(c2ccc(Cl)cc2Cl)C(=O)OC12CCCCC2", "active"),
    ("O=C(NC(=O)c1c(F)cccc1F)Nc1ccc(OC(F)(F)C(F)OC(F)(F)F)c(Cl)c1 (stereo unspecified)", "inactive"),
    ("O=C1c2ccccc2C(=O)N1SC(Cl)(Cl)Cl", "inactive"),
    ("CC(C)(C)C(O)/C(=C\\c1ccc(Cl)cc1Cl)n1cncn1 (stereo unspecified)", "inactive"),
]

Below: the item to evaluate.
Problem: Query: recorded result category for `O=[N+]([O-])c1c(Cl)c(Cl)c(Cl)c(Cl)c1Cl` in this test
Result: inactive

----------
ASSAYED_TARGET: guinea pig Sigma Receptor, Non-selective Binding, SIGMAR1 (gene 100135589) (UniProt Q60492)
Sequence (Q60492 whole entry, looked up): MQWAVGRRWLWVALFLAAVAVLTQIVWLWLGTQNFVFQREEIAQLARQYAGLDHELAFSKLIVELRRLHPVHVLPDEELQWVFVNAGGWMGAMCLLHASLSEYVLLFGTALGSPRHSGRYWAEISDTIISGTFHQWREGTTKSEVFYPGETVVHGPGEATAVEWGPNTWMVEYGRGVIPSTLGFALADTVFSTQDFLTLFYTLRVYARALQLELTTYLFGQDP
ASSAY_DETAILS: NVS_OR_gSIGMA_NonSelective: NovaScreen (NVS) Nuclear Receptor Binding Assay for guinea pig Sigma Receptor, Non-selective Binding (AID 2283367)
The source made the active and inactive calls. The calls were made as follows: active = hit-call score of the fitted dose curve at least 0.9, where 1 is the maximum; inconclusive = response in the unintended direction; inactive = score below 0.9.
The molecules listed here are annotated with their AC50.

Some solved cases for reference:
# MOLECULE, QUANTITY_NAME, EXPERIMENTAL_VALUE
data = [
    ("COP(=S)(OC)Oc1ccc([N+](=O)[O-])cc1", "AC50", "4.69 µM (active)"),
    ("CC(C)(C)C(O)/C(=C\\c1ccc(Cl)cc1Cl)n1cncn1 (centres undefined)", "AC50", "1.25 µM (active)"),
    ("CCCN(CCOc1c(Cl)cc(Cl)cc1Cl)C(=O)n1ccnc1", "AC50", "8.36 µM (active)"),
]

AC50 reported for this molecule `COc1nn(CSP(=S)(OC)OC)c(=O)s1` : 10.7 µM (active)

----------
Read-out: Apoptosis regulator Bcl-2 (Homo sapiens) (UniProt P10415)
Sequence (P10415 whole entry, looked up): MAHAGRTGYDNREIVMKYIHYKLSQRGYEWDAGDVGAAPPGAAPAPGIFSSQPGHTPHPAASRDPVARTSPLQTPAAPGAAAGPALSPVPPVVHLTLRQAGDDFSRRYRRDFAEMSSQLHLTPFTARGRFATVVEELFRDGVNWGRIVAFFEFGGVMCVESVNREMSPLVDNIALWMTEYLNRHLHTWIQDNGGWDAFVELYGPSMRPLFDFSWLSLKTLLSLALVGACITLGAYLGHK
ASSAY_DETAILS: LTEA_HepaRG_BCL2: Life Technologies and Expression Analysis (LTEA) Assay for Bcl-2 gene using HepaRG (AID 2283475);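 further: BCL2 transcript by TaqMan qRT-PCR normalised to ACTB GAPDH and POLR2A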
RUN_CONDITIONS: mRNA level, 48 h; actives raise or lower the signal
Active and inactive are the calls of the source. Rule for the calls: active = hit-call score of the fitted dose curve at least 0.9, where 1 is the maximum; inactive = score below 0.9.
QUANTITY_NAME: AC50

Some solved cases for reference:
# COMPOUND, AC50
data = [
    ("CCC(C)(NC(=O)c1cc(Cl)c(C)c(Cl)c1)C(=O)CCl (stereo unspecified)", "inactive"),
    ("CC[C@H](C)[C@H]1O[C@]2(C=C[C@@H]1C)C[C@@H]1C[C@@H](C/C=C(\\C)[C@@H](O[C@H]3C[C@H](OC)[C@@H](O[C@H]4C[C@H](OC)[C@@H](O)[C@H](C)O4)[C@H](C)O3)[C@@H](C)/C=C/C=C3\\CO[C@@H]4[C@H](O)C(C)=C[C@@H](C(=O)O1)[C@]34O)O2 (tested in a mixture with another compound)", "9.08 µM (active)"),
    ("CNC(=O)CSP(=S)(OC)OC", "inactive"),
    ("CC1(C)C(C=C(Cl)Cl)C1C(=O)OC(C#N)c1ccc(F)c(Oc2ccccc2)c1 (stereo unspecified)", "inactive"),
    ("O=[N+]([O-])/N=C1\\NCCN1Cc1ccc(Cl)nc1", "inactive"),
]

AC50 reported for this compound `COP(=S)(OC)Oc1ccc(SC)c(C)c1` : inactive

AC50 reported for this compound CC1(c2ccc(Oc3ccccc3)cc2)OC(=O)N(Nc2ccccc2)C1=O (stereo unspecified) : 9.6 µM (active)

AC50 reported for this compound `CCCN(CCC)c1c([N+](=O)[O-])cc(C(F)(F)F)cc1[N+](=O)[O-]` : inactive

AC50 reported for this compound `O=C(O)COc1ccc(Cl)cc1Cl` : inactive

AC50 reported for this compound `O=C(O)CCCOc1ccc(Cl)cc1Cl` : inactive

----------
ASSAY_DETAILS: APR_HepG2_StressKinase_1hr: Apredica 1-hour HepG2 Assay for Stress Kinase (AID 2282906)
RUN_CONDITIONS: HepG2 stress kinase (phospho-c-Jun) imaging, actives raise or lower the signal
Calls of active or inactive are those of the source. How the source made its calls: active means hit-call score of the fitted dose curve at least 0.9, where 1 is the maximum; inactive means score below 0.9.
Give your call using only these classes: active, inactive

# COMPOUND, ASSIGNED_CLASS
data = [
    ("CCC(C)Nc1c([N+](=O)[O-])cc(C(C)(C)C)cc1[N+](=O)[O-] (stereo not given)", "inactive"),
    ("OCCOc1ccccc1", "inactive"),
    ("CCOCN(C(=O)CCl)c1c(C)cccc1CC", "inactive"),
    ("Clc1ccccc1-c1nnc(-c2ccccc2Cl)nn1", "inactive"),
    ("O=[N+]([O-])/N=C1\\NCCN1Cc1ccc(Cl)nc1", "inactive"),
]

Problem: Query: recorded result category for `O=S(=O)(O)C(F)(F)C(F)(F)C(F)(F)C(F)(F)C(F)(F)C(F)(F)C(F)(F)C(F)(F)F` in this test
Result: inactive
